tested on: 354836-022-R-J1-PDC multicell spheroid viability; experiment: Anticancer human tumor 354836-022-R-J1-PDC patient-derived head and neck squamous cell carcinoma cell line growth inhibition [PI3K]; details: second compound 1 µM; first compound 0.0316 µM; stronger effect = lower value
Please note: viability, T/C exactly at 70% is f. Only values below 70% get t.

- COMPOUND: "CC1(C)CCC(CN2CCN(c3ccc(C(=O)NS(=O)(=O)c4ccc(NCC5CCOCC5)c([N+](=O)[O-])c4)c(Oc4cnc5[nH]ccc5c4)c3)CC2)=C(c2ccc(Cl)cc2)C1 + COc1c(OCCCN2CCOCC2)ccc2c3n(c(=NC(=O)c4cnc(N)nc4)nc12)CCN3"
  CLASS: "t"

Please let me know if C=CC(=O)N1CCN(c2nc(=O)n(-c3c(C)ccnc3C(C)C)c3nc(-c4c(O)cccc4F)c(F)cc23)C(C)C1 (stereo not given) + COc1c(OCCCN2CCOCC2)ccc2c3n(c(=NC(=O)c4cnc(N)nc4)nc12)CCN3 shows viability, T/C below 70%.
t

Please let me know if C[C@@H](NC(=O)c1ncnc(N)c1Cl)c1ncc(C(=O)Nc2cc(C(F)(F)F)c(Cl)cn2)s1 + CC(Nc1ncnc2nc[nH]c12)c1cc2cccc(Cl)c2c(=O)n1-c1ccccc1 shows viability, T/C below 70%.
f

====

Property: viability, T/C; scope: individual compounds
system: 354836-022-R-J1-PDC multicell spheroid viability; experiment: Anticancer human tumor 354836-022-R-J1-PDC cell line growth inhibition [PI3K]; settings: second compound 0.316 µM; first compound 0.316 µM; stronger effect = lower value;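 also: spheroids exposed to agents for seven days before the viability read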

- COMPOUND: "CC(C)NCC(C(=O)N1CCN(c2ncnc3c2C(C)CC3O)CC1)c1ccc(Cl)cc1 (stereo unspecified) + CC(Nc1ncnc2nc[nH]c12)c1cc2cccc(Cl)c2c(=O)n1-c1ccccc1"
  viability, T/C: "50.1%"

Name the reported viability, T/C value associated with the compound CNC(=O)c1ccc(N2C(=S)N(c3ccc(C#N)c(C(F)(F)F)c3)C(=O)C2(C)C)cc1F + CC(Nc1ncnc2nc[nH]c12)c1cc2cccc(Cl)c2c(=O)n1-c1ccccc1
97.6%

Name the reported viability, T/C value associated with the compound CCN1CCN(Cc2ccc(Nc3ncc(F)c(-c4cc(F)c5nc(C)n(C(C)C)c5c4)n3)nc2)CC1 + CC(Nc1ccc2c(c1)OCCn1cc(N3C(=O)OCC3C(F)F)nc1-2)C(N)=O
61.5%

Name the reported viability, T/C value associated with the compound CCN1CCN(Cc2ccc(Nc3ncc(F)c(-c4cc(F)c5nc(C)n(C(C)C)c5c4)n3)nc2)CC1 + CC(Nc1ncnc2nc[nH]c12)c1cc2cccc(Cl)c2c(=O)n1-c1ccccc1
89.4%

Name the reported viability, T/C value associated with the compound CC(Cn1ccc(-c2ccc(C#N)c(Cl)c2)n1)NC(=O)c1cc(C(C)O)[nH]n1 (stereo unspecified) + CC(Nc1ccc2c(c1)OCCn1cc(N3C(=O)OCC3C(F)F)nc1-2)C(N)=O
69.8%

Name the reported viability, T/C value associated with the compound CC1(C)CCC(Nc2ncc(C(F)(F)F)c(-c3c[nH]c4c(P(C)(C)=O)c(C#N)ccc34)n2)CN1 (stereo unspecified) + Cc1nc(NC(=O)N2CCCC2C(N)=O)sc1-c1ccnc(C(C)(C)C(F)(F)F)c1
19.3%

====

system: 354836-022-R-J1-PDC multicell spheroid viability; test: Anticancer human tumor 354836-022-R-J1-PDC cell line growth inhibition [PI3K]; details: second compound 0.316 µM; first compound 0.00316 µM; active = viability on the fitted dose curve at most 10% of control; inactive = the rest;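 also: spheroids exposed to agents for seven days before the viability read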
Your answer must be one of the following: active, inactive

Illustrative cases are given below, each with its answer.
- COMPOUND: "CC(=O)c1c(C)c2cnc(Nc3ccc(N4CCNCC4)cn3)nc2n(C2CCCC2)c1=O + Cc1nc(NC(=O)N2CCCC2C(N)=O)sc1-c1ccnc(C(C)(C)C(F)(F)F)c1"
  CLASS: "inactive"
- COMPOUND: "Cn1ncnc1[C@H]1c2n[nH]c(=O)c3cc(F)cc(c23)N[C@@H]1c1ccc(F)cc1 + Cc1nc(NC(=O)N2CCCC2C(N)=O)sc1-c1ccnc(C(C)(C)C(F)(F)F)c1"
  CLASS: "inactive"
- COMPOUND: "Cn1ncnc1[C@H]1c2n[nH]c(=O)c3cc(F)cc(c23)N[C@@H]1c1ccc(F)cc1 + CC(Nc1ncnc2nc[nH]c12)c1cc2cccc(Cl)c2c(=O)n1-c1ccccc1"
  CLASS: "inactive"

Can you look up the reported call for CC(C)n1nc(-c2ccc3oc(N)nc3c2)c2c(N)ncnc21 + CC(Nc1ncnc2nc[nH]c12)c1cc2cccc(Cl)c2c(=O)n1-c1ccccc1 for me?
inactive

Can you look up the reported call for Cn1ncnc1[C@H]1c2n[nH]c(=O)c3cc(F)cc(c23)N[C@@H]1c1ccc(F)cc1 + COc1c(OCCCN2CCOCC2)ccc2c3n(c(=NC(=O)c4cnc(N)nc4)nc12)CCN3 for me?
inactive

Can you look up the reported call for CC(=O)c1c(C)c2cnc(Nc3ccc(N4CCNCC4)cn3)nc2n(C2CCCC2)c1=O + COc1c(OCCCN2CCOCC2)ccc2c3n(c(=NC(=O)c4cnc(N)nc4)nc12)CCN3 for me?
inactive

Can you look up the reported call for CC(C)n1nc(-c2ccc3oc(N)nc3c2)c2c(N)ncnc21 + Cc1nc(NC(=O)N2CCCC2C(N)=O)sc1-c1ccnc(C(C)(C)C(F)(F)F)c1 for me?
inactive

Can you look up the reported call for CCN1CCN(Cc2ccc(Nc3ncc(F)c(-c4cc(F)c5nc(C)n(C(C)C)c5c4)n3)nc2)CC1 + CC(Nc1ncnc2nc[nH]c12)c1cc2cccc(Cl)c2c(=O)n1-c1ccccc1 for me?
inactive

Can you look up the reported call for CC(C)n1nc(-c2ccc3oc(N)nc3c2)c2c(N)ncnc21 + CC(Nc1ccc2c(c1)OCCn1cc(N3C(=O)OCC3C(F)F)nc1-2)C(N)=O for me?
inactive

Can you look up the reported call for CC(C)n1nc(-c2ccc3oc(N)nc3c2)c2c(N)ncnc21 + COc1c(OCCCN2CCOCC2)ccc2c3n(c(=NC(=O)c4cnc(N)nc4)nc12)CCN3 for me?
active

Can you look up the reported call for Cn1ncnc1[C@H]1c2n[nH]c(=O)c3cc(F)cc(c23)N[C@@H]1c1ccc(F)cc1 + CC(Nc1ccc2c(c1)OCCn1cc(N3C(=O)OCC3C(F)F)nc1-2)C(N)=O for me?
inactive

Can you look up the reported call for CC(=O)c1c(C)c2cnc(Nc3ccc(N4CCNCC4)cn3)nc2n(C2CCCC2)c1=O + CC(Nc1ncnc2nc[nH]c12)c1cc2cccc(Cl)c2c(=O)n1-c1ccccc1 for me?
inactive
